target: COVID-19 S1 Spike Protein Mutant G476S (SARS-CoV-2), P0DTC2; test: FP direct binding
Non-standard residues stand in square brackets, D forms with d. No end group written: not given here. Sar = CNCC(=O)O
Kd listing for selected binders.
MEASURED ENDPOINT: Kd (µM)

> print(dat)
                                     binder  data.value
1  ACDVCGLNAFNRCA[Sar][Sar][Sar][Sar][Sar][Sar][KFl] (cysteine pairing not given here) [BCY16287]       0.058
2  ACEDHDWVYCSTCA[Sar][Sar][Sar][Sar][Sar][Sar][KFl] (cysteine pairing not given here) [BCY15299]       0.944
3  ACRQSQCDWWAIRSFCA[Sar][Sar][Sar][Sar][Sar][Sar][KFl] (cysteine pairing not given here) [BCY15324]       0.588
